Each recorded value in this set is attributed to PubChem BioAssay.

# Test system: Sonic hedgehog protein (Shh)
# ASSAY TEXT: Sonic hedgehog microarray binding compounds – biochemical, small-molecule microarray, 635/667 nm fluorescence, primary screen (AID 1151);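 further: Shh protein binding to compounds spotted on small-molecule microarray slides; score combines spot fluorescence intensity with signal-to-noise across triplicate slides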
# RUN PARAMETERS: 635 nm fluorescence, higher = more signal
MEASURED ENDPOINT: composite z-score
# respond with the number and nothing more

COMPOUND: CCCCC(CC)C(O)C1C=CC2C(=O)N(c3ccccc3)C(=O)C2N1Nc1ccccc1F (stereo not drawn)
composite z-score: -0.045

COMPOUND: COc1ccc([Si](C)(C)[C@H]2[C@H](CC(=O)N3CCC[C@H]3CO)O[C@@]3(C(=O)N(Cc4ccc(N5CCOC5=O)cc4)c4ccccc43)[C@@H]2C)cc1
composite z-score: 2.05

COMPOUND: Cc1ccc(S[C@]2(C(=O)NCc3ccccc3)CC(=O)N(C3CCCCC3)[C@@H]2c2ccc(CO)cc2I)cc1
composite z-score: 0.259

COMPOUND: COC(=O)[C@@]1(Cc2ccc(OC)cc2)[C@H]2c3cc(C(=O)N(C)C)n(Cc4ccc(C)o4)c3C[C@H]2CN1C(=O)c1ccccc1
composite z-score: -0.797

COMPOUND: COc1ccc([Si](C)(C)[C@@H]2[C@@H](CCO)O[C@]3(C(=O)N(Cc4ccccc4)c4ccc(N5C(=O)c6cccc7cccc5c67)cc43)[C@H]2C)cc1
composite z-score: -0.204

Q: Name the recorded composite z-score for CC(CO)N1C(=O)[C@@H]2[C@H]3C(=O)OCC=C[C@H]3OC23C=CCN(Cn2nnc4ccccc42)C(=O)[C@@H]13 (stereo partly drawn) .
A: 0.464

Q: Name the recorded composite z-score for COCCOC(=O)N1C(=O)[C@@]2(c3cc(C#CCC(C(=O)OC)C(=O)OC)ccc31)[C@H](c1ccc(OCCO)cc1)N1[C@H](c3ccccc3)[C@H](c3ccccc3)OC(=O)[C@H]1[C@@H]2C(=O)N1CCc2cc(OC)c(OC)cc2C1 .
A: 1.8

Q: Name the recorded composite z-score for CCCCN1CC=CC23O[C@@H]4/C=C\CCC(C)OC(=O)C4[C@H]2C(=O)N(CCCO)[C@@H]3C1=O (stereo partly drawn) .
A: -0.36

---

# Test system: Sonic hedgehog protein (Shh)
# ASSAY TEXT: Sonic hedgehog microarray binding compounds – biochemical, small-molecule microarray, 635/667 nm fluorescence, primary screen (AID 1151);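 further: Shh protein binding to compounds spotted on small-molecule microarray slides; score combines spot fluorescence intensity with signal-to-noise across triplicate slides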
# RUN PARAMETERS: 635 nm fluorescence, higher = more signal
# if value of composite z-score reaches -0.4, tag Condition met; if it stays below, tag Condition not met

SMILES NOTATION: CC(C)NC(=O)[C@@]1(C)c2ccccc2C(=O)N(Cc2ccc(OC(F)(F)F)cc2)[C@H]1c1ccc(CO)cc1
TARGET DESC: Sonic hedgehog protein (Shh)
GROUP: Condition met
--
SMILES NOTATION: Cc1ccc(S[C@]2(C(=O)NC(C)C)CC(=O)N(Cc3cc(C(F)(F)F)cc(C(F)(F)F)c3)[C@@H]2c2ccc(CO)cc2)cc1
TARGET DESC: Sonic hedgehog protein (Shh)
GROUP: Condition not met
--
SMILES NOTATION: C=C[C@H](C)[C@H](OC(=O)Nc1ccc(SC)cc1)c1ccc(OCCO)cc1
TARGET DESC: Sonic hedgehog protein (Shh)
GROUP: Condition met
--
SMILES NOTATION: COc1ccccc1CN1C(=O)c2ccccc2[C@](Cc2ccccc2I)(C(=O)O)[C@@H]1c1ccc(CO)cc1
TARGET DESC: Sonic hedgehog protein (Shh)
GROUP: Condition met

Q: Entry CC(C)N1C(=O)C[C@@](C(=O)O)(c2ccc([N+](=O)[O-])cc2)[C@H]1c1ccc(CO)cc1 : is its composite z-score no less than -0.4?
A: Condition not met

---

# ASSAY TEXT: probe aEGFR binding to arrayed compounds – biochemical, biotinylated probe, 635/667 nm fluorescence, primary screen (AID 1097);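 further: probe is a biotinylated anti-EGFR antibody binding compounds printed on slides; score combines fluorescence near 667 nm and signal to noise of each spot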
# RUN PARAMETERS: small-molecule microarray, higher = more signal
MEASURED ENDPOINT: composite z-score
# respond with the number and nothing more

Study these solved cases before continuing.
MOLECULE: CC(C)(C)OC(=O)CC[C@@]1(C(=O)NCC(O)CO)N=C(c2ccc(OCCCO)cc2)O[C@@H]1c1ccccc1CN=[N+]=[N-] (some centres undefined)
composite z-score: -0.0229
--
MOLECULE: [N-]=[N+]=Nc1ccccc1C[C@]1(C(=O)NCC(O)CO)COC(c2ccc(OCCCO)cc2)=N1 (some centres undefined)
composite z-score: 0.58
--
MOLECULE: CC1CC/C=C\[C@H]2OC34C=CCN(Cc5ccccc5)C(=O)[C@H]3N(C(CO)C(C)C)C(=O)[C@@H]4C2C(=O)O1 (some centres undefined)
composite z-score: 0.244
--
MOLECULE: [N-]=[N+]=Nc1ccccc1C[C@]1(C(=O)NCCN2CCOCC2)COC(c2ccc(OCCCO)cc2)=N1
composite z-score: 0.0433
--
MOLECULE: CCCCCN1CC=CC23O[C@@H]4/C=C\CCCOC(=O)C4[C@H]2C(=O)N(C(C)CO)[C@@H]3C1=O (some centres undefined)
composite z-score: -0.213

Q: Name the recorded composite z-score for O=C1CS(=O)(=O)C(c2cccc([N+](=O)[O-])c2)N1c1ccccc1 (centres undefined) .
A: 0.583

Q: Name the recorded composite z-score for CCCN1C(=O)[C@@]2(Cc3ccccc31)N=C(c1ccc(OCCCO)cc1)O[C@H]2c1ccccc1 .
A: 0.0192

Q: Name the recorded composite z-score for N[C@@H](Cc1ccccc1)C(=O)NCc1cn(Cc2ccccc2)nn1 .
A: 0.0282

Q: Name the recorded composite z-score for CCCNC(=O)[C@@]1(Sc2ccc(C)cc2)CC(=O)N(C2Cc3ccccc3C2)[C@@H]1c1ccc(CO)cc1I .
A: -0.126

Q: Name the recorded composite z-score for C=CC[C@@H](OC(=O)Nc1ccc(OC)cc1)c1ccc(O)c(F)c1 .
A: -0.241

Q: Name the recorded composite z-score for O=C1O[C@@H](c2ccccc2)[C@@H](c2ccccc2)N2[C@@H](c3ccc(O)cc3)[C@]3(C(=O)Nc4ccc(C#CCCO)cc43)[C@@H](C(=O)N3CCN(c4ncccn4)CC3)[C@H]12 .
A: -0.257

Q: Name the recorded composite z-score for C#CCN(Cc1ccccc1Br)[C@H](/C=C/c1ccccc1)[C@@H](O)Cc1ccccc1 .
A: -0.397

Q: Name the recorded composite z-score for COc1cc(OC)c(C(O)C2C=CC3C(=O)N(Cc4ccccc4)C(=O)C3N2n2cnnc2)cc1Br (centres undefined) .
A: -0.0343

Q: Name the recorded composite z-score for COCCOC(=O)N1C(=O)[C@@]2(c3cc(C#CC4(O)CCCCCC4)ccc31)[C@H](C(=O)N1CCc3cc(OC)c(OC)cc3C1)[C@H]1C(=O)O[C@H](c3ccccc3)[C@H](c3ccccc3)N1[C@@H]2c1ccc(OCCO)cc1 .
A: -0.0234

---

# ASSAY TEXT: FRG1 expression reporter modulators in myotubes – cell-based, C2C12 myotubes, firefly/Renilla luciferase, luminescence, FRG1 inhibition for FSHD, primary screen (AID 1084)
# RUN PARAMETERS: FRG1 promoter luciferase, higher = more signal, called active from +8 up or from −8 down
# if value of z-score reaches 0.07, tag t; if it stays below, tag f

COMPOUND: COCCOC(=O)N1C(=O)[C@@]2(c3cc(C#CC4(O)CCCCCC4)ccc31)[C@H](c1ccc(O)cc1)N1[C@H](c3ccccc3)[C@H](c3ccccc3)OC(=O)[C@H]1[C@@H]2C(=O)N1CCN(c2ncccn2)CC1
GROUP: t

Q: Entry CC(c1ccccc1)C(O)C1C=CC2C(=O)N(C)C(=O)C2N1Nc1ccccc1 (centres undefined) : is its z-score no less than 0.07?
A: t

Q: Entry [N-]=[N+]=NCc1ccccc1C[C@@]1(C(N)=O)N=C(c2ccc(OCCCO)cc2)O[C@@H]1c1ccccc1 : is its z-score no less than 0.07?
A: f

Q: Entry O=c1cccc(-c2ccc([N+](=O)[O-])cc2)o1 : is its z-score no less than 0.07?
A: f

Q: Entry CCCC1(C(=O)OC)C=C2C(=C(C)C(=O)C2C)CN1 (centres undefined) : is its z-score no less than 0.07?
A: t

Q: Entry CCCCN1CC=CC23O[C@@H]4/C=C\CCCOC(=O)C4[C@H]2C(=O)N(CCO)[C@@H]3C1=O (some centres undefined) : is its z-score no less than 0.07?
A: f

Q: Entry CCOC(=O)C1=C[C@@H](C(C)C)N(S(=O)(=O)c2ccc(C)cc2)[C@H]1c1ccc(C(F)(F)F)cc1 : is its z-score no less than 0.07?
A: f

Q: Entry COC(=O)C1(CC(C)C)C=C2C(=C(c3ccccc3)C(=O)C2C)CN1 (centres undefined) : is its z-score no less than 0.07?
A: t

Q: Entry CCOC(=O)C1=C[C@@H](C(C)(C)C)N(S(=O)(=O)c2ccc(C)cc2)[C@H]1c1cccc2ccccc12 : is its z-score no less than 0.07?
A: f

Q: Entry COc1ccc([Si](C)(C)[C@@H]2[C@@H](CCO)O[C@]3(C(=O)N(Cc4ccccc4)c4ccc(N5CCOC5=O)cc43)[C@H]2C)cc1 : is its z-score no less than 0.07?
A: f

Q: Entry NC(=O)NCC#Cc1ccc2c(c1)[C@]1(C(=O)N2)[C@H](C(=O)N2CCN(c3ncccn3)CC2)[C@H]2C(=O)O[C@H](c3ccccc3)[C@H](c3ccccc3)N2[C@@H]1c1ccc(O)cc1 : is its z-score no less than 0.07?
A: t

Q: Entry O=C(O)[C@@H]1C[C@@H]2C(=O)N3CCC[C@H]3C(=O)N2[C@@H]1c1ccc(O)cc1 : is its z-score no less than 0.07?
A: t

Q: Entry CCCCC(CC)C(O)C1C=CC2C(=O)N(c3ccccc3)C(=O)C2N1Nc1ccccc1F (centres undefined) : is its z-score no less than 0.07?
A: t

Q: Entry O=C(Cc1ccccc1)[C@H]1C2C=CCCC(c3ccccc3)=C2CN1Cc1ccccc1 (some centres undefined) : is its z-score no less than 0.07?
A: f
